Molecular target: T1, MCL-1 (mouse, residues 152-308) (mouse)
T1 construct: remnant of thrombin cleavage at the N-terminus of MCL-1; MCL-1, mouse, residues 152-308, UniProt P97287; source: E. coli C41 pLysS, purified (Ni2+ agarose, thrombin cleavage, ion exchange, Superdex G75 gel filtration); not shown: His6, N-terminal, cleaved
T1 chain: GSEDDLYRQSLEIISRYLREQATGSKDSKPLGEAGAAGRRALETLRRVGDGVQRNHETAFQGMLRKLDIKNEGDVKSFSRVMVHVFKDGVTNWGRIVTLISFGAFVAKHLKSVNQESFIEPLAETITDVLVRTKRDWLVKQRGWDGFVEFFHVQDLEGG
Assay: other fluorescence titration; equilibrium binding curve of TAMRA-labelled peptide, fluorescence (A.U.) against MCL-1 concentration; 50 mM sodium phosphate, 0.05% (v/v) Tween 20, pH 7.0
Details: both partners purified
Where no end group is shown, it is not given here. The star is where a group is joined. TAMRA = 5-carboxytetramethylrhodamine, CN(C)c1ccc2c(-c3ccc(C(=O)*)cc3C(=O)[O-])c3ccc(=[N+](C)C)cc-3oc2c1
quantityMeasured: Kd (nM)
# output: bare number, implied unit nM

Kd in this record for {TAMRA}-RVEEEEWAREIGGQLRRAADDLNGQYERRRQEEQH (peptide, UniProt Q99ML1 127-161, looked up, PUMA, mouse, residues 127-161, UniProt Q99ML1; Double mutant; also called A150G (A139G); source: synthetic peptide (Biomatik)) [PUMA (A139G A150G) peptide (on the M144A wild type), TAMRA-labelled] : 1.7
